Data provenance is patent US12577201B2.

- assay_info: Stability in liver microsomes, monkey
- Format: in vitro ADME
- settings: 60 minutes, read-out: In vitro Clint
assay_metric: microsomal CLint at 1 μM

CO[C@@H](C)C(=O)N[C@@H](CCC(=O)C=[N+]=[N-])C(=O)SC(C)C [Compound 459] = 130 µL/min/mg
CO[C@@H](C)C(=O)N[C@@H](CCC(=O)C=[N+]=[N-])C(=O)OC(C)C [Compound 2] = 31.8 µL/min/mg
CO[C@@H](CCSC)C(=O)N[C@@H](CCC(=O)C=[N+]=[N-])C(=O)OC(C)C [Compound 443] = 180 µL/min/mg
CC(=O)N[C@@H](Cc1c[nH]c2ccccc12)C(=O)N[C@@H](CCC(=O)C=[N+]=[N-])C(=O)OC(C)C [Reference compound A, reference compound] = 393 µL/min/mg

====

- assay_info: Stability in liver microsomes, dog
- Type: in vitro ADME
- settings: 60 minutes, read-out: In vitro Clint
Reported microsomal CLint at 1 μM values for a set of compounds
assay_metric: microsomal CLint at 1 μM (µL/min/mg)

CC(=O)N[C@@H](Cc1c[nH]c2ccccc12)C(=O)N[C@@H](CCC(=O)C=[N+]=[N-])C(=O)OC(C)C [Reference compound A, reference compound] = 60.4
CO[C@@H](C)C(=O)N[C@@H](CCC(=O)C=[N+]=[N-])C(=O)OC(C)C = 12.7
CO[C@@H](CCSC)C(=O)N[C@@H](CCC(=O)C=[N+]=[N-])C(=O)OC(C)C = 81.9
CO[C@@H](C)C(=O)N[C@@H](CCC(=O)C=[N+]=[N-])C(=O)SC(C)C = 9.57

====

- assay_info: Stability in liver microsomes, mouse
- Type: in vitro ADME
- settings: 60 minutes, read-out: In vitro Clint
Measured microsomal CLint at 1 μM of individual entries
assay_metric: microsomal CLint at 1 μM (µL/min/mg)

CO[C@@H](C)C(=O)N[C@@H](CCC(=O)C=[N+]=[N-])C(=O)OC(C)C = 67.1
CC(=O)N[C@@H](Cc1c[nH]c2ccccc12)C(=O)N[C@@H](CCC(=O)C=[N+]=[N-])C(=O)OC(C)C [Reference compound A, reference compound] = 153
CO[C@@H](CCSC)C(=O)N[C@@H](CCC(=O)C=[N+]=[N-])C(=O)OC(C)C = 408
CO[C@@H](C)C(=O)N[C@@H](CCC(=O)C=[N+]=[N-])C(=O)SC(C)C = 71.7
